Data provenance is paper PMC3046295.

TARGET: HLA-DR0403 (DRA1*0101/DRB1*0403), soluble recombinant (human)
ASSAY_REMARKS: ELISA
No end group written: not given here.
OBSERVED_PROPERTY: EC50 (nM)
Form entry: value (nM) — number only.

Note to self: EC50 recorded for NFIRMVISNPAAT (not fully specified) [biotinylated GAD65-557I] was 10
